- test_target: human recombinant serotonin 5-HT2A receptor (Homo sapiens, UniProt P28223)
- Sequence (P28223 whole entry): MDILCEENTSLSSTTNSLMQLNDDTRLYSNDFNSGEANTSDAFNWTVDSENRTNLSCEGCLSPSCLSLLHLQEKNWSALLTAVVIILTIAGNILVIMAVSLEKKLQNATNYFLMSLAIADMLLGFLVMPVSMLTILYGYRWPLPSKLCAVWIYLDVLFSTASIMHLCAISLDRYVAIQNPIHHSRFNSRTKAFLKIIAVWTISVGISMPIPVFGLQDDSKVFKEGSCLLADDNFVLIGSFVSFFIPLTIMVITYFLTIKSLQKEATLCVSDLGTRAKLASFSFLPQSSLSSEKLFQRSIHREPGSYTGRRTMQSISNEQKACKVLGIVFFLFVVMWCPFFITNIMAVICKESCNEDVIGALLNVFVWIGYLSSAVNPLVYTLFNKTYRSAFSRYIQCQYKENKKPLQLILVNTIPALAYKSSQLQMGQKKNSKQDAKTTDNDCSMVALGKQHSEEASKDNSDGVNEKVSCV
- assay_info: Binding affinity for serotonin 5-HT2A receptor ([3H]Ketanserin)
- recorded_conditions: CHO-K1 expressed receptor, 1 nM [3H]Ketanserin
Where a name gives a salt, the structure may show the parent alone.
# reported pIC50; entries follow
The scale used: pIC50 is minus the common logarithm of the concentration in molar units.

Use these answered entries as a reference point.
Cc1cccc(N2CCN(CCCCNC(=O)c3cc(-c4ccccc4)n(C)c3C)CC2)c1C [Example 35, hydrochloride] : 7.21
Cc1[nH]c(-c2ccc(Cl)cc2)cc1C(=O)NCCCN1CCN(c2cccc(Cl)c2Cl)CC1 [Example 45, hydrochloride] : 6.98

API: the following record is the query input.
Input line: Specify measured pIC50 for CCCn1c(-c2ccccc2)cc(C(=O)NCCCCN2CCN(c3cccc(Cl)c3Cl)CC2)c1C [Example 34, hydrochloride] .
Output line: 6.98
